Entry source: the supplement of paper PMC10567573

B1: SNAP91 (parent)
chain: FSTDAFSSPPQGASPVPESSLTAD

- Variants of: B1
- Test name: protein stability index of a GFP-peptide fusion (GPS, HEK-293T) (PSI 1-6); higher = more stable;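 note: lentivirally expressed fusions sorted by FACS into six bins by GFP to DsRed ratio, PSI derived from sequencing read proportions per bin multiplied by bin number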
- Measurement parameters: c terminus: a fixed tail appended
Measured parameter: protein stability index

>>> test_result("S8P")
4
>>> test_result("A13Y")
2.85
>>> test_result("P10Y")
2.18
>>> test_result("P9V")
2.74
>>> test_result("S20P")
2.46
>>> test_result("G12D")
3.52
>>> test_result("S14D")
3.62
>>> test_result("S7T")
3.33
>>> test_result("S14Y")
2.84
>>> test_result("G12Y")
2.44
>>> test_result("T3V")
4.56
>>> test_result("L21T")
3.45
>>> test_result("A5G")
4.76
>>> test_result("D4Q")
3.28
>>> test_result("T3W")
4.38
>>> test_result("E18V")
3.05
>>> test_result("S8F")
3.22
>>> test_result("S8M")
3.02
>>> test_result("F6A")
5.57
>>> test_result("D4H")
3.44
>>> test_result("S7I")
2.66
>>> test_result("L21Q")
3.53
>>> test_result("E18G")
3.05
>>> test_result("T22D")
3.46
>>> test_result("D24Y")
2.25
>>> test_result("S14C")
3
>>> test_result("S19Q")
3.1
>>> test_result("P17F")
2.86
>>> test_result("T3I")
4.4
>>> test_result("T3L")
4.93
>>> test_result("F1M")
5.44
>>> test_result("Q11K")
2.68
>>> test_result("F6T")
5.61
>>> test_result("L21A")
3.44
>>> test_result("V16D")
3.12
>>> test_result("S14H")
3.06
>>> test_result("P15W")
2.37
>>> test_result("P9F")
2.46
>>> test_result("P15N")
3.12
>>> test_result("S2K")
5.08
>>> test_result("V16T")
2.96
>>> test_result("Q11G")
3.34
>>> test_result("P10W")
1.72
>>> test_result("D24N")
2.62
>>> test_result("D4N")
2.66
>>> test_result("D4Y")
3.02
>>> test_result("P15F")
2.57
>>> test_result("P9E")
4.35
>>> test_result("S14L")
3.22
>>> test_result("F1I")
5.36
>>> test_result("D4K")
2.94
>>> test_result("V16Q")
3.33
>>> test_result("T22S")
3.63
>>> test_result("A13V")
2.75
>>> test_result("D24K")
3.18
>>> test_result("P9Q")
3.02
>>> test_result("P17K")
2.9
>>> test_result("A13G")
2.99
>>> test_result("S19M")
2.66
>>> test_result("D24S")
2.78
>>> test_result("S14Q")
2.75
>>> test_result("A23M")
2.97
>>> test_result("S20M")
2.98
>>> test_result("P15E")
3.6
>>> test_result("P10Q")
3.24
>>> test_result("L21P")
3.33
>>> test_result("S2L")
3.34
>>> test_result("S14K")
2.9
>>> test_result("D4S")
2.82
>>> test_result("L21H")
3.47
>>> test_result("A5Y")
2.33
>>> test_result("S8D")
4.93
>>> test_result("Q11S")
4.17
>>> test_result("F6S")
5.44
>>> test_result("D4P")
4.29
>>> test_result("S8W")
3.44
>>> test_result("E18K")
2.51
>>> test_result("S7F")
1.99
>>> test_result("S2G")
2.8
>>> test_result("D4T")
2.21
>>> test_result("S14N")
3
>>> test_result("D24W")
1.87
>>> test_result("A23S")
2.94
>>> test_result("F1V")
5.52
>>> test_result("S2I")
1.64
>>> test_result("S7M")
2.84
>>> test_result("G12F")
2.6
>>> test_result("S7A")
2.98
>>> test_result("E18H")
2.69
>>> test_result("V16F")
2.7
>>> test_result("Q11V")
2.88
